# test name: Biodistribution of 18F-labeled SST2 ligands in AR42J tumor-bearing mice
# Format: in vivo
# assay setup: female, CD1 nu/nu, mouse, lung, iv, total radioactivity, Blocking study, 1 h post injection; read-out: Lung % ID/g ± SD
observable: tissue uptake at 1 h (%ID/g)
// units = %ID/g; emit number, no label

// field: tissue uptake at 1 h; key: C[C@@H](O)[C@H](NC(=O)C1CSSCC(NC(=O)C(Cc2ccccc2)NC(=O)CNC(=O)CNC(=O)[C@@H](CC(=O)O)NC(=O)C(CC(=O)O)NC(=O)[C@@H](CNC(=O)CN2CCN(CC(=O)O)CCN(CC(=O)O)CCN(CC(=O)O)CC2)NC(=O)C[N+](C)(C)Cc2ccc([Si](F)(C(C)(C)C)C(C)(C)C)cc2)C(=O)N[C@@H](Cc2ccc(O)cc2)C(=O)NC(Cc2c[nH]c3ccccc23)C(=O)N[C@@H](CCCCN)C(=O)N[C@@H]([C@@H](C)O)C(=O)N1)C(=O)O (stereo partly shown) (natGa complex, metal not drawn) [[Ga]24] ; value = 1.36

====

# test name: Biodistribution of 18F-labeled SST2 ligands in AR42J tumor-bearing mice
# Format: in vivo
# assay setup: female, CD1 nu/nu, mouse, AR42J tumor, iv, total radioactivity, AR42J tumor, Blocking study, 1 h post injection; read-out: Tumor % ID/g ± SD
observable: tissue uptake at 1 h (%ID/g)
Report only the number, with the unit %ID/g understood.

get_value(item= C[C@@H](O)[C@H](NC(=O)C1CSSCC(NC(=O)C(Cc2ccccc2)NC(=O)CNC(=O)CNC(=O)[C@@H](CC(=O)O)NC(=O)C(CC(=O)O)NC(=O)[C@@H](CNC(=O)CN2CCN(CC(=O)O)CCN(CC(=O)O)CCN(CC(=O)O)CC2)NC(=O)C[N+](C)(C)Cc2ccc([Si](F)(C(C)(C)C)C(C)(C)C)cc2)C(=O)N[C@@H](Cc2ccc(O)cc2)C(=O)NC(Cc2c[nH]c3ccccc23)C(=O)N[C@@H](CCCCN)C(=O)N[C@@H]([C@@H](C)O)C(=O)N1)C(=O)O (stereo partly shown) (natGa complex, metal not drawn) [[Ga]24] , readout=tissue uptake at 1 h) returns 6.1

====

# test name: Octanol-water distribution coefficient (logD pH 7.4) of the labeled tracer
# Assay type: physicochemical
# assay setup: n-octanol/PBS pH 7.4, room temperature
# Protocol: Approximately 1 MBq of the labeled tracer was dissolved in 1 mL of a 1:1 mixture (by volumes) of phosphate buffered saline (PBS, pH 7.4) and n-octanol in an Eppendorf tube. After vigorous mixing of the suspension for 3 minutes at room temperature, the vial was centrifuged at 15000 g for 5 minutes (Biofuge 15, Heraus Sepatech, Osterode, Germany) and 100 μL aliquots of both layers were measured in a gamma counter. The experiment was repeated at least six times.
API: label(entry) gives 1 if the entry's LogDpH=7.4 is strictly smaller than -2; on equality or larger values it gives -1.

// known answers, use as guide
- molecule: "C[C@@H](O)[C@H](NC(=O)C1CSSCC(NC(=O)C(Cc2ccccc2)NC(=O)[C@@H](CC(N)=O)NC(=O)C(CC(N)=O)NC(=O)CNC(=O)C(CC(=O)O)NC(=O)[C@@H](CC(=O)O)NC(=O)C(CNC(=O)CN2CCN(CC(=O)O)CCN(CC(=O)O)CCN(CC(=O)O)CC2)NC(=O)C[N+](C)(C)Cc2ccc([Si](F)(C(C)(C)C)C(C)(C)C)cc2)C(=O)N[C@@H](Cc2ccc(O)cc2)C(=O)NC(Cc2c[nH]c3ccccc23)C(=O)N[C@@H](CCCCN)C(=O)N[C@@H]([C@@H](C)O)C(=O)N1)C(=O)O (some centres unmarked) [[Ga]49]"
  group: 1
- molecule: "C[C@@H](O)[C@H](NC(=O)C1CSSCC(NC(=O)C(Cc2ccccc2)NC(=O)CNC(=O)CNC(=O)[C@@H](CC(=O)O)NC(=O)C(CC(=O)O)NC(=O)[C@@H](CNC(=O)CN2CCN(CC(=O)O)CCN(CC(=O)O)CCN(CC(=O)O)CC2)NC(=O)C[N+](C)(C)Cc2ccc([Si](F)(C(C)(C)C)C(C)(C)C)cc2)C(=O)N[C@@H](Cc2ccc(O)cc2)C(=O)NC(Cc2c[nH]c3ccccc23)C(=O)N[C@@H](CCCCN)C(=O)N[C@@H]([C@@H](C)O)C(=O)N1)C(=O)O (some centres unmarked) [[Lu]24]"
  group: -1
- molecule: "CC(O)C(NC(=O)C1CSSCC(NC(=O)C(Cc2ccccc2)NC(=O)CNC(=O)CNC(=O)CNC(=O)[C@@H](CCCN)NC(=O)[C@@H](CCCN)NC(=O)C(CNC(=O)CN2CCN(CC(=O)O)CCN(CC(=O)O)CCN(CC(=O)O)CC2)NC(=O)C[N+](C)(C)Cc2ccc([Si](F)(C(C)(C)C)C(C)(C)C)cc2)C(=O)N[C@@H](Cc2ccc(O)cc2)C(=O)NC(Cc2c[nH]c3ccccc23)C(=O)N[C@@H](CCCCN)C(=O)N[C@@H]([C@@H](C)O)C(=O)N1)C(=O)O (some centres unmarked) (natGa complex, metal not drawn) [[Ga]55]"
  group: -1
- molecule: "C[C@@H](O)[C@H](NC(=O)C1CSSCC(NC(=O)C(Cc2ccccc2)NC(=O)CNC(=O)CNC(=O)CNC(=O)C(CC(=O)O)NC(=O)[C@@H](CC(=O)O)NC(=O)C(CCC(=O)O)NC(=O)[C@@H](CNC(=O)C[N+](C)(C)Cc2ccc([Si](F)(C(C)(C)C)C(C)(C)C)cc2)NC(=O)CN2CCN(CC(=O)O)CCN(CC(=O)O)CCN(CC(=O)O)CC2)C(=O)N[C@@H](Cc2ccc(O)cc2)C(=O)NC(Cc2c[nH]c3ccccc23)C(=O)N[C@@H](CCCCN)C(=O)N[C@@H]([C@@H](C)O)C(=O)N1)C(=O)O (some centres unmarked) [[Ga]47]"
  group: 1
- molecule: "C[C@@H](O)[C@H](NC(=O)C1CSSCC(NC(=O)C(Cc2ccccc2)NC(=O)COCCOCCNC(=O)C(CC(=O)O)NC(=O)[C@@H](CC(=O)O)NC(=O)C(CNC(=O)c2ccc([Si](F)(C(C)(C)C)C(C)(C)C)cc2)NC(=O)CN2CCN(CC(=O)O)CCN(CC(=O)O)CCN(CC(=O)O)CC2)C(=O)N[C@@H](Cc2ccc(O)cc2)C(=O)NC(Cc2c[nH]c3ccccc23)C(=O)N[C@@H](CCCCN)C(=O)N[C@@H]([C@@H](C)O)C(=O)N1)C(=O)O (some centres unmarked) (natGa complex, metal not drawn) [[Ga]3]"
  group: -1

Then this molecule:
State whether -2 exceeds LogDpH=7.4 recorded for C[C@@H](O)[C@H](NC(=O)C1CSSCC(NC(=O)C(Cc2ccccc2)NC(=O)CNC(=O)CNC(=O)CNC(=O)C(CC(=O)O)NC(=O)[C@@H](CC(=O)O)NC(=O)C(CNC(=O)CN2CCN(CC(=O)O)CCN(CC(=O)O)CCN(CC(=O)O)CC2)NC(=O)[C@@H](CN)NC(=O)C[N+](C)(C)Cc2ccc([Si](F)(C(C)(C)C)C(C)(C)C)cc2)C(=O)N[C@@H](Cc2ccc(O)cc2)C(=O)NC(Cc2c[nH]c3ccccc23)C(=O)N[C@@H](CCCCN)C(=O)N[C@@H]([C@@H](C)O)C(=O)N1)C(=O)O (some centres unmarked) [[Lu]51] . -1

====

# test name: Biodistribution of 18F-labeled SST2 ligands in AR42J tumor-bearing mice
# Type: in vivo
# assay setup: female, CD1 nu/nu, mouse, blood, iv, total radioactivity, 1 h post injection, tail vein; read-out: Blood % ID/g ± SD
observable: tissue uptake at 1 h (%ID/g)
Quick note: give the figure in %ID/g, leave out the unit.

Illustrative cases are given below, each with its answer.
- molecule: "C[C@@H](O)[C@H](NC(=O)C1CSSCC(NC(=O)C(Cc2ccccc2)NC(=O)CNC(=O)CNC(=O)CNC(=O)C(CC(=O)O)NC(=O)[C@@H](CC(=O)O)NC(=O)C(CCCNC(N)=O)NC(=O)[C@@H](CNC(=O)C[N+](C)(C)Cc2ccc([Si](F)(C(C)(C)C)C(C)(C)C)cc2)NC(=O)CN2CCN(CC(=O)O)CCN(CC(=O)O)CCN(CC(=O)O)CC2)C(=O)N[C@@H](Cc2ccc(O)cc2)C(=O)NC(Cc2c[nH]c3ccccc23)C(=O)N[C@@H](CCCCN)C(=O)N[C@@H]([C@@H](C)O)C(=O)N1)C(=O)O (some centres unmarked) (natGa complex, metal not drawn) [[Ga]46]"
  observable: "tissue uptake at 1 h"
  readout number: 0.57
- molecule: "C[C@@H](O)[C@H](NC(=O)C1CSSCC(NC(=O)C(Cc2ccccc2)NC(=O)CNC(=O)CNC(=O)[C@@H](CC(=O)O)NC(=O)C(CC(=O)O)NC(=O)[C@@H](CNC(=O)CN2CCN(CC(=O)O)CCN(CC(=O)O)CCN(CC(=O)O)CC2)NC(=O)C[N+](C)(C)Cc2ccc([Si](F)(C(C)(C)C)C(C)(C)C)cc2)C(=O)N[C@@H](Cc2ccc(O)cc2)C(=O)NC(Cc2c[nH]c3ccccc23)C(=O)N[C@@H](CCCCN)C(=O)N[C@@H]([C@@H](C)O)C(=O)N1)C(=O)O (some centres unmarked) (natGa complex, metal not drawn) [[Ga]24]"
  observable: "tissue uptake at 1 h"
  readout number: 0.66
- molecule: "C[C@@H](O)[C@H](NC(=O)C1CSSCC(NC(=O)C(Cc2ccccc2)NC(=O)CNC(=O)CNC(=O)CNC(=O)C(CC(=O)O)NC(=O)[C@@H](CC(=O)O)NC(=O)C(CCCCN)NC(=O)[C@@H](CNC(=O)C[N+](C)(C)Cc2ccc([Si](F)(C(C)(C)C)C(C)(C)C)cc2)NC(=O)CN2CCN(CC(=O)O)CCN(CC(=O)O)CCN(CC(=O)O)CC2)C(=O)N[C@@H](Cc2ccc(O)cc2)C(=O)NC(Cc2c[nH]c3ccccc23)C(=O)N[C@@H](CCCCN)C(=O)N[C@@H]([C@@H](C)O)C(=O)N1)C(=O)O (some centres unmarked) (natGa complex, metal not drawn) [[Ga]45]"
  observable: "tissue uptake at 1 h"
  readout number: 0.53
- molecule: "C[C@@H](O)[C@H](NC(=O)C1CSSCC(NC(=O)C(Cc2ccccc2)NC(=O)CNC(=O)CNC(=O)[C@@H](CC(=O)O)NC(=O)C(CC(=O)O)NC(=O)[C@@H](CNC(=O)CN2CCN(CC(=O)O)CCN(CC(=O)O)CCN(CC(=O)O)CC2)NC(=O)C(CN)NC(=O)c2ccc([Si](F)(C(C)(C)C)C(C)(C)C)cc2)C(=O)N[C@@H](Cc2ccc(O)cc2)C(=O)NC(Cc2c[nH]c3ccccc23)C(=O)N[C@@H](CCCCN)C(=O)N[C@@H]([C@@H](C)O)C(=O)N1)C(=O)O (some centres unmarked) (natGa complex, metal not drawn) [[Ga]19]"
  observable: "tissue uptake at 1 h"
  readout number: 2.24

# context switch: different molecule, same tissue uptake at 1 h
The recorded tissue uptake at 1 h for C[C@@H](O)[C@H](NC(=O)C1CSSCC(NC(=O)C(Cc2ccccc2)NC(=O)CNC(=O)CNC(=O)CNC(=O)C(CC(=O)O)NC(=O)[C@@H](CC(=O)O)NC(=O)C(CNC(=O)CN2CCN(CC(=O)O)CCN(CC(=O)O)CCN(CC(=O)O)CC2)NC(=O)C[N+](C)(C)Cc2ccc([Si](F)(C(C)(C)C)C(C)(C)C)cc2)C(=O)N[C@@H](Cc2ccc(O)cc2)C(=O)NC(Cc2c[nH]c3ccccc23)C(=O)N[C@@H](CCCCN)C(=O)N[C@@H]([C@@H](C)O)C(=O)N1)C(=O)O (some centres unmarked) (natGa complex, metal not drawn) [[Ga]50] is 0.5
